B1: Mineralocorticoid receptor, residues 600 to 675; numbered along this chain, P08235 (parent)
chain: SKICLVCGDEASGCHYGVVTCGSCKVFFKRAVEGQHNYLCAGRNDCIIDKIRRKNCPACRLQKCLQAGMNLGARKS

variants of: B1; assay: abundance fitness (aPCA) (normalised: wild type 0, dead -1); higher = more abundant; growth selection in yeast, the domain comes from the species named; details: Homo sapiens
Categories are assigned from the measured abundance fitness using these intervals: low (below -0.1), moderate (-0.1 to below -0.02), high (-0.02 or more)

Challenge: Please classify: R52A
Response given: moderate

Challenge: Bin this entry: D45E
Response given: high
